# credit: ChEMBL document CHEMBL2163333

- Organism: Homo sapiens
- Assay Text: Selectivity ratio of IC50 for human CYP11B2 to IC50 for human CYP11B1
Give Ratio IC50 for every item shown.
I only need the number, thanks.

Bench note: what Ratio IC50 did O=C1CCc2cc(C(c3cccc(F)c3)n3ccnc3)cc3c2N1CC3 (stereo unspecified) show?
0.6

Follow-up item: COc1cccc(C(c2cc3c4c(c2)CCN4C(=O)CC3)n2ccnc2)c1 (stereo unspecified)
0.8

Do the same for O=C1CCc2cc(C(c3ccc(F)cc3)n3ccnc3)cc3c2N1CC3 (stereo unspecified) please
1.1

Try this compound next: CCC(c1cc2c3c(c1)CCN3C(=O)CC2)n1ccnc1 (stereo unspecified)
0.9

Also O=C1CCc2cc(C(C3CCC3)n3ccnc3)cc3c2N1CC3 (stereo unspecified) ?
1.2

Then CC(c1cc2c3c(c1)CCN3C(=O)CC2)n1ccnc1 (stereo unspecified) ?
0.9

Please do the same for COc1ccc(C(c2cc3c4c(c2)CCN4C(=O)CC3)n2ccnc2)cc1 (stereo unspecified) as well.
2.6

Now consider CC(c1cc2c3c(c1)CCN3C(=O)CC2)(n1ccnc1)n1ccnc1 and answer again.
1.9

What do we get for O=C1CCc2cc(C(c3ccccc3F)n3ccnc3)cc3c2N1CC3 (stereo unspecified) ?
0.5

Also N#Cc1cccc(C(c2cc3c4c(c2)CCN4C(=O)CC3)n2ccnc2)c1 (stereo unspecified) , if possible.
2.1

Also need CC(C)C(c1cc2c3c(c1)CCN3C(=O)CC2)n1ccnc1 (stereo unspecified) , thanks.
2.7

Now the compound O=C1CCc2cc(C(c3cccs3)n3ccnc3)cc3c2N1CC3 (stereo unspecified)
1.4

// same read-out, input: O=C1CCc2cc(C(c3ccccc3)n3ccnc3)cc3c2N1CC3 (stereo unspecified)
0.7

How about this compound: O=C1CCc2cc(C(c3ccco3)n3ccnc3)cc3c2N1CC3 (stereo unspecified)
2.4

And C=C(c1cc2c3c(c1)CCN3C(=O)CC2)n1ccnc1 ?
5.3

Thanks! And N#Cc1ccc(C(c2cc3c4c(c2)CCN4C(=O)CC3)n2ccnc2)cc1 (stereo unspecified) ?
4.4

----------
- Test System: Cytochrome P450 11B2, mitochondrial (Homo sapiens, UniProt P19099)
- Sequence (P19099 whole entry): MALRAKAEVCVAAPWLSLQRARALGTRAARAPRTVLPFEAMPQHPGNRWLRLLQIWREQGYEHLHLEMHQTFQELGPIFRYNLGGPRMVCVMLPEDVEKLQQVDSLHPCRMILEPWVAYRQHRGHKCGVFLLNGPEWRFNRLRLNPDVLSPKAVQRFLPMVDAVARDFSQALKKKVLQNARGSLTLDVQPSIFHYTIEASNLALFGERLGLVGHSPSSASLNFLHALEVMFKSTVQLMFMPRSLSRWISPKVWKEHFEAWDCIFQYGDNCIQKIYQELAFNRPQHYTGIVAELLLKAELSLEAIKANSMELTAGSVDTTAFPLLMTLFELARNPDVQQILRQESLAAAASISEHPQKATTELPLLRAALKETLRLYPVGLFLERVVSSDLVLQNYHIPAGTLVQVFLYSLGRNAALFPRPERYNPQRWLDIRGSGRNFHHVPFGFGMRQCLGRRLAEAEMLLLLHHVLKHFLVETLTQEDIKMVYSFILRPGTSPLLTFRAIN
- Assay Text: Inhibition of human CYP11B2 expressed in hamster V79 MZh cells using deoxycorticosterone substrate
IC50 strictly under 6 nM means yes (1); at 6 nM or over means no (0).

For CCC(c1cc2c3c(c1)CCN3C(=O)CC2)n1ccnc1 (stereo unspecified) , is the recorded IC50 below the cut-off of 6 nM?
yes (1)

Same question, N#Cc1cccc(C(c2cc3c4c(c2)CCN4C(=O)CC3)n2ccnc2)c1 (stereo unspecified) this time
no (0)

Also, CC(C)C(c1cc2c3c(c1)CCN3C(=O)CC2)n1ccnc1 (stereo unspecified) please.
yes (1)

Entry to check: O=C1CCc2cc(C(c3ccccc3)n3ccnc3)cc3c2N1CC3 (stereo unspecified)
no (0)

Lookup CC(c1cc2c3c(c1)CCN3C(=O)CC2)n1ccnc1 (stereo unspecified)
no (0)

Same read-out for O=C1CCc2cc(C(C3CCC3)n3ccnc3)cc3c2N1CC3 (stereo unspecified) ?
yes (1)

----------
- Test System: Cytochrome P450 11B2, mitochondrial (Homo sapiens)
- Assay Text: Inhibition of human CYP11B2 expressed in hamster V79 MZh cells using deoxycorticosterone substrate
pIC50: −log10 of the molar value.
Respond with 1.0 for pIC50 values of 7 and above, 0.0 for values below.

Is reported pIC50 greater than or equal to 7 here: O=C1CCc2cc(C(c3cccc(F)c3)n3ccnc3)cc3c2N1CC3 (stereo unspecified)
1.0

How about O=C1CCc2cc(C(c3ccco3)n3ccnc3)cc3c2N1CC3 (stereo unspecified) ?
1.0

What do you get for O=C1CCc2cc(C(c3ccc(F)cc3)n3ccnc3)cc3c2N1CC3 (stereo unspecified) ?
1.0

Would you kindly repeat that for O=C1CCc2cc(C(C3CC3)n3ccnc3)cc3c2N1CC3 (racemic) ?
1.0

Now the compound N#Cc1ccc(C(c2cc3c4c(c2)CCN4C(=O)CC3)n2ccnc2)cc1 (stereo unspecified)
0.0

Field entry: CC(c1cc2c3c(c1)CCN3C(=O)CC2)(n1ccnc1)n1ccnc1
0.0
